Overview of recorded antimicrobial susceptibility, A. baumannii FSAb-056 for various compounds
Tested on: A. baumannii FSAb-056
Measurement protocol: Antimicrobial Susceptibility Test (CLSI), Test Example 2
Assay type: cell-based
Set-up: unit not given here
Assay context: Table 4; strain produces OXA-23, OXA-51
Readout name: antimicrobial susceptibility, A. baumannii FSAb-056

* C[C@@H](O)[C@H]1C(=O)N2C(C(=O)O)=C(CN3CC(NC(=O)c4ccc(O)c(O)c4F)[C@@H](O)C3)[C@H](C)[C@H]12 (stereo partly drawn) [Compound 36] | 8
* C[C@@H](O)[C@H]1C(=O)N2C(C(=O)O)=C(CN(C)CCNC(=O)c3ccc(O)c(O)c3F)[C@H](C)[C@H]12 [Compound 2] | 2
* C[C@@H](O)[C@H]1C(=O)N2C(C(=O)O)=C(CN(C)CCNC(=O)c3ccc(O)c(O)c3C(F)(F)F)[C@H](C)[C@H]12 [Compound 3] | 4
* Cc1c(C(=O)NCCN(C)CC2=C(C(=O)O)N3C(=O)[C@H]([C@@H](C)O)[C@H]3[C@H]2C)ccc(O)c1O [Compound 4] | 8
* C[C@@H](O)[C@H]1C(=O)N2C(C(=O)O)=C(CN3C[C@@H](O)[C@H](NC(=O)c4ccc(O)c(O)c4Cl)C3)[C@H](C)[C@H]12 [Compound 31] | 4
* C[C@@H](O)[C@H]1C(=O)N2C(C(=O)[O-])=C(C[N+](C)(C)CCNC(=O)c3ccc(O)c(O)c3F)[C@H](C)[C@H]12 [Compound 41] | 32

----------
Test system: A. baumannii FSAb-056
Measurement protocol: Antimicrobial Susceptibility Test (CLSI), Test Example 2
Format: cell-based
Parameters: unit not given here
Assay context: Table 4; strain produces OXA-23, OXA-51
Protocol: Antimicrobial Susceptibility Test was performed by the CLSI (Clinical and Laboratory Standards Institute) methods. The agar dilution method for determining antimicrobial susceptibility was carried out using Mueller Hinton-II agar and the amount of inoculation was 10^4CFU/spot. Broth dilution tests were performed using the Mueller Hinton-II broth. All assays were run with the indicated control strains, available from the ATCC (American Type Culture Collection, Rockville, Md.).
Readout name: antimicrobial susceptibility, A. baumannii FSAb-056

- C[C@@H](O)[C@H]1C(=O)N2C(C(=O)O)=C(CN3C[C@@H](NC(=O)c4ccc(O)c(O)c4Cl)C[C@@H]3C(N)=O)[C@H](C)[C@H]12: 8
- C[C@@H](O)[C@H]1C(=O)N2C(C(=O)O)=C(CN3CC[C@@H](NC(=O)c4ccc(O)c(O)c4Cl)C3)[C@H](C)[C@H]12: 4
- C[C@@H](O)[C@H]1C(=O)N2C(C(=O)[O-])=C(C[N+](C)(C)CCNC(=O)c3ccc(O)c(O)c3Cl)[C@H](C)[C@H]12: 8
- C[C@@H](O)[C@H]1C(=O)N2C(C(=O)O)=C(CN3C[C@@H](NC(=O)c4ccc(O)c(O)c4Cl)C[C@H]3C(N)=O)[C@H](C)[C@H]12: 16
- C[C@@H](O)[C@H]1C(=O)N2C(C(=O)O)=C(CN3CCCC3CNC(=O)c3ccc(O)c(O)c3Cl)[C@H](C)[C@H]12 (stereo partly drawn) [Compound 34]: 8
- C[C@@H](O)[C@H]1C(=O)N2C(C(=O)O)=C(CN(C)CC(=O)NCCNC(=O)c3ccc(O)c(O)c3Cl)[C@H](C)[C@H]12: 8
- C[C@@H](O)[C@H]1C(=O)N2C(C(=O)O)=C(CN3CCC(C(=O)NCc4ccc(O)c(O)c4Cl)C3)[C@H](C)[C@H]12 (stereo partly drawn): 16
- C[C@@H](O)[C@H]1C(=O)N2C(C(=O)O)=C(CN(C)CC(=O)NCc3cc(=O)c(O)cn3O)[C@H](C)[C@H]12: 4
- C[C@@H](O)[C@H]1C(=O)N2C(C(=O)O)=C(CN(C)CC(NC(=O)c3ccc(O)c(O)c3Cl)C(N)=O)[C@H](C)[C@H]12 (stereo partly drawn): 4
- C[C@@H](O)[C@H]1C(=O)N2C(C(=O)O)=C(CN(C)CCCNC(=O)c3ccc(O)c(O)c3Cl)[C@H](C)[C@H]12: 4
- C[C@@H](O)[C@H]1C(=O)N2C(C(=O)O)=C(CN(C)CCNC(=O)c3cc(O)c(O)c(F)c3)[C@H](C)[C@H]12: 2

----------
Tested on: A. baumannii FSAb-039
Measurement protocol: Antimicrobial Susceptibility Test (CLSI), Test Example 2
Type: cell-based
Set-up: unit not given here
Assay context: Table 4; strain produces OXA-51
Protocol: Antimicrobial Susceptibility Test was performed by the CLSI (Clinical and Laboratory Standards Institute) methods. The agar dilution method for determining antimicrobial susceptibility was carried out using Mueller Hinton-II agar and the amount of inoculation was 10^4CFU/spot. Broth dilution tests were performed using the Mueller Hinton-II broth. All assays were run with the indicated control strains, available from the ATCC (American Type Culture Collection, Rockville, Md.).
Overview of recorded antimicrobial susceptibility, A. baumannii FSAb-039 for various compounds
Readout name: antimicrobial susceptibility, A. baumannii FSAb-039

* C[C@@H](O)[C@H]1C(=O)N2C(C(=O)O)=C(CN3C[C@@H](NC(=O)c4ccc(O)c(O)c4Cl)C[C@@H]3C(N)=O)[C@H](C)[C@H]12 | 32
* C[C@@H](O)[C@H]1C(=O)N2C(C(=O)O)=C(CN3CC[C@H](NC(=O)c4ccc(OCc5ccccc5)c(OCc5ccccc5)c4Cl)C3)[C@H](C)[C@H]12 | 8
* C[C@@H](O)[C@H]1C(=O)N2C(C(=O)O)=C(CN3C[C@H](NC(=O)c4ccc(O)c(O)c4Cl)[C@@H](O)C3)[C@H](C)[C@H]12 | 4
* C[C@@H](O)[C@H]1C(=O)N2C(C(=O)O)=C(CN3CC(NC(=O)c4ccc(O)c(O)c4Cl)C3)[C@H](C)[C@H]12 | 4
* C[C@@H](O)[C@H]1C(=O)N2C(C(=O)O)=C(CN(C)CC(=O)NCc3ccc(O)c(O)c3Cl)[C@H](C)[C@H]12 | 8

----------
Test system: A. baumannii FSAb-056
Measurement protocol: Antimicrobial Susceptibility Test (CLSI), Test Example 2
Format: cell-based
Set-up: unit not given here
Assay context: Table 4; strain produces OXA-23, OXA-51
Overview of recorded antimicrobial susceptibility, A. baumannii FSAb-056 for various compounds
Readout name: antimicrobial susceptibility, A. baumannii FSAb-056

* C[C@@H](O)[C@H]1C(=O)N2C(C(=O)O)=C(CN3CC[C@H](NC(=O)c4ccc(OCc5ccccc5)c(OCc5ccccc5)c4Cl)C3)[C@H](C)[C@H]12 [Compound 28] | 4
* C[C@@H](O)[C@H]1C(=O)N2C(C(=O)O)=C(CN(C)CCNC(=O)c3cc(O)c(O)c(Cl)c3)[C@H](C)[C@H]12 [Compound 6] | 2
* C[C@@H](O)[C@H]1C(=O)N2C(C(=O)O)=C(CN(C)CCNC(=O)c3ccc(O)c(O)c3Cl)[C@H](C)[C@H]12 [Compound 1] | 2
* C[C@@H](O)[C@H]1C(=O)N2C(C(=O)O)=C(CN3CCCC3CNC(=O)c3ccc(O)c(O)c3Cl)[C@H](C)[C@H]12 (stereo partly drawn) [Compound 35] | 4
* C[C@@H](O)[C@H]1C(=O)N2C(C(=O)O)=C(CN(C)CC(=O)NCc3ccc(O)c(O)c3Cl)[C@H](C)[C@H]12 [Compound 21] | 8
* C[C@@H](O)[C@H]1C(=O)N2C(C(=O)O)=C(CN(C)CCNC(=O)c3ccc(O)cc3)[C@H](C)[C@H]12 [Compound 10] | 16

----------
Tested on: A. baumannii FSAb-065
Measurement protocol: Antimicrobial Susceptibility Test (CLSI), Test Example 2
Assay type: cell-based
Design: unit not given here
Assay context: Table 4; strain produces OXA-2, VIM-2
Protocol: Antimicrobial Susceptibility Test was performed by the CLSI (Clinical and Laboratory Standards Institute) methods. The agar dilution method for determining antimicrobial susceptibility was carried out using Mueller Hinton-II agar and the amount of inoculation was 10^4CFU/spot. Broth dilution tests were performed using the Mueller Hinton-II broth. All assays were run with the indicated control strains, available from the ATCC (American Type Culture Collection, Rockville, Md.).
Readout name: antimicrobial susceptibility, A. baumannii FSAb-065

- Cc1c(C(=O)NCCN(C)CC2=C(C(=O)O)N3C(=O)[C@H]([C@@H](C)O)[C@H]3[C@H]2C)ccc(O)c1O [Compound 4]: 4
- C[C@@H](O)[C@H]1C(=O)N2C(C(=O)O)=C(CN3C[C@@H](NC(=O)c4ccc(O)c(O)c4Cl)C[C@@H]3C(N)=O)[C@H](C)[C@H]12 [Compound 33]: 1
- C[C@@H](O)[C@H]1C(=O)N2C(C(=O)O)=C(CN3C[C@@H](O)[C@H](NC(=O)c4ccc(O)c(O)c4Cl)C3)[C@H](C)[C@H]12 [Compound 31]: 0.5
- C[C@@H](O)[C@H]1C(=O)N2C(C(=O)O)=C(CN3CC[C@@H](NC(=O)c4ccc(O)c(O)c4Cl)C3)[C@H](C)[C@H]12 [Compound 29]: 1
- C[C@@H](O)[C@H]1C(=O)N2C(C(=O)O)=C(CN(C)CC(=O)NCc3ccc(O)c(O)c3Cl)[C@H](C)[C@H]12 [Compound 21]: 2
- C[C@@H](O)[C@H]1C(=O)N2C(C(=O)O)=C(CN(C)CCNC(=O)c3ccc(O)cc3)[C@H](C)[C@H]12 [Compound 10]: 16
- C[C@@H](O)[C@H]1C(=O)N2C(C(=O)O)=C(CN(C)CCCNC(=O)c3ccc(O)c(O)c3Cl)[C@H](C)[C@H]12 [Compound 17]: 2
- C[C@@H](O)[C@H]1C(=O)N2C(C(=O)O)=C(CN3CC(C(=O)NCc4ccc(O)c(O)c4Cl)C3)[C@H](C)[C@H]12 [Compound 39]: 1
- C[C@@H](O)[C@H]1C(=O)N2C(C(=O)O)=C(CN3C[C@@H](NC(=O)c4ccc(O)c(O)c4Cl)C[C@H]3C(N)=O)[C@H](C)[C@H]12 [Compound 32]: 1
- C[C@@H](O)[C@H]1C(=O)N2C(C(=O)O)=C(CN(C)CCNC(=O)c3cc(O)c(O)c(Cl)c3)[C@H](C)[C@H]12 [Compound 6]: 2
- C[C@@H](O)[C@H]1C(=O)N2C(C(=O)O)=C(CN(C)CC(NC(=O)c3ccc(O)c(O)c3Cl)C(N)=O)[C@H](C)[C@H]12 (stereo partly drawn) [Compound 18]: 1
- C[C@@H](O)[C@H]1C(=O)N2C(C(=O)[O-])=C(C[N+](C)(C)CCNC(=O)c3ccc(O)c(O)c3Cl)[C@H](C)[C@H]12 [Compound 40]: 4
